System: T. vaginalis PNP
assay explanation: Substrate cleavage by wild-type Tv-PNP (HPLC)
Format: biochemical, Trichomonas vaginalis
test settings: 100 micromolar substrate, HPLC separation of base from nucleoside
rate of enzymatic cleavage by T. vaginalis PNP: recorded values

# molecule, target system, experimental result
records = [
    ("NC(=O)[C@H]1O[C@@H](n2cnc3c(N)ncnc32)[C@H](O)[C@@H]1O [5′-carboxamide of adenosine]", "T. vaginalis PNP", "33 nanomoles per milligrams per hour"),
    ("Cc1ncnc2c1ncn2[C@@H]1O[C@H](CO)[C@@H](O)[C@@H]1O [9-[β-D-arabinofuranosyl]-6-methylpurine]", "T. vaginalis PNP", "570 nanomoles per milligrams per hour"),
    ("Cc1ncnc2c1ncn2[C@@H]1O[C@H](C)[C@@H](O)[C@H]1O", "T. vaginalis PNP", "3,600 nanomoles per milligrams per hour"),
    ("Nc1ncnc2c1ncn2[C@@H]1O[C@@H](CO)[C@@H](O)[C@H]1O", "T. vaginalis PNP", "22,000 nanomoles per milligrams per hour"),
    ("Nc1nc(F)nc2c1ncn2[C@@H]1O[C@H](CO)[C@@H](O)[C@@H]1O [9-(β-D-arabinofuranosyl)-2-fluoroadenine, reference compound]", "T. vaginalis PNP", "32,000 nanomoles per milligrams per hour"),
]

Prompt: Look at this molecule and give its reported rate of enzymatic cleavage by T. vaginalis PNP. `Nc1ncnc2c1ncn2[C@@H]1O[C@H](CO)[C@H](O)[C@H]1O`
Completion: 2 nanomoles per milligrams per hour

Prompt: Please give the result for `Cc1ncnc2c1ncn2[C@@H]1O[C@@H](CO)[C@@H](O)[C@H]1O` too.
Completion: 10,000 nanomoles per milligrams per hour

Prompt: Param item: `Cc1ncnc2c1ncn2[C@@H]1O[C@H]([C@H](C)O)[C@@H](O)[C@H]1O`
Completion: 8,400 nanomoles per milligrams per hour

Prompt: Moving on to the next molecule: `Nc1nc2ncn([C@@H]3O[C@H](CO)[C@@H](O)[C@H]3O)c2c(=S)[nH]1`
Completion: 435 nanomoles per milligrams per hour

Prompt: Item: `O=c1[nH]cnc2ncn([C@@H]3O[C@H](CO)[C@@H](O)[C@H]3O)c12`
Completion: 2,300 nanomoles per milligrams per hour

Prompt: For `Cc1ncnc2c1ncn2[C@@H]1O[C@H](C(C)(C)O)[C@@H](O)[C@H]1O` then?
Completion: <8 nanomoles per milligrams per hour
